# Kd values compiled below
Biological target: T1, human VIP (human)
T1 construct: also called Vasoactive Intestinal Peptide
T1 peptide: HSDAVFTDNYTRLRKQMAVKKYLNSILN
Assay: SPR, Ab immobilised

| binder | Kd (nM) |
| --- | --- |
| anti-PACAP antibody Ab2 (antibody, human IgG1, kappa, N297A, V domains shown, full-length rabbit/human chimeric antibody) VH: QSVEESGGRLVTPGTPLTLTCTVSGFSLSGAAMNWVRQAPGKGLEWIGVIGNSGSTYYASWAKGRFTISKTSSTTVDLKMTSPTTEDTATYFCARGGGEFFIWGQGTLVTVSS VL: AQVLTQTPSPVSAAVGGTVTINCQSSESVYKNNYLSWYQQKPGQPPKFLIYQASNLADGVPSRFKGSGSGTQFTLTISDLECDDAATYYCAGGYSTYMSGFGGGTEVVVKR | 140 |
| anti-PACAP antibody Ab14 (antibody, human IgG1, kappa, N297A, V domains shown, full-length rabbit/human chimeric antibody) VH: QSVEASGGRLVTPGTPLTLTCTVSGFSLSSAAMNWVRQAPGKGLEWIGFIEYSKNIVYASWAKGRFTISKVSSTTVDLKMTSPTTEDTATYFCARGGGEFFIWGQGTLVTVSS VL: AQVLTQTPSSVSAAVGGTVTINCQSSQSVYSNNRLSYYQQKPGQPPKLLIYEASSLAYGVPSRFKGSGSGTQFTLTISDLECDDAATYYCAGAYSNSIYSFGGGTEVVVKR | 250 |

The measurements presented in this section are drawn from patent US20190233498A1.
